Origin of measurements: patent US7790742B2

The following compounds are shown together with reported melting point values.

Worked examples follow.
[
  {
    "compound": "CN(C)CCNc1c(Nc2ccc(C3CN(C)Cc4c(Cl)cc(Cl)cc43)cc2)c(=O)c1=O (stereo not shown)",
    "melting point": "262 to 266 °C"
  },
  {
    "compound": "CCN(CC)c1c(Nc2cccc([C@@H]3CN(C)Cc4c(Cl)cc(Cl)cc43)c2)c(=O)c1=O",
    "melting point": "125 to 135 °C"
  },
  {
    "compound": "CC(C)Nc1c(Nc2ccc(C3CN(C)Cc4c(Cl)cc(Cl)cc43)cc2)c(=O)c1=O (stereo not shown)",
    "melting point": "268 to 272 °C"
  }
]

Could you now look at the following compound, please?
Need melting point, item CC(C)CN(C)c1c(Nc2ccc(C3CN(C)Cc4c(Cl)cc(Cl)cc43)cc2)c(=O)c1=O (stereo not shown) > 310 °C

* * *

value-type: melting point

I would be grateful if you could share the reported melting point for CCNc1c(Nc2ccc(C3CN(C)Cc4c(Cl)cc(Cl)cc43)cc2)c(=O)c1=O (stereo not drawn) [Example 51] . 292 to 297 °C

Param item = CC(C)N(C)c1c(Nc2cccc([C@@H]3CN(C)Cc4c(Cl)cc(Cl)cc43)c2)c(=O)c1=O [Example 31] ; retrieve measured melting point. 135 to 150 °C

Report melting point for CN1Cc2c(Cl)cc(Cl)cc2C(c2ccc(Nc3c(NCc4ccco4)c(=O)c3=O)cc2)C1 (stereo not drawn) [Example 56] please. 264 to 268 °C

Any idea what its melting point is? The compound is CN1Cc2c(Cl)cc(Cl)cc2C(c2ccccc2Nc2c(NC3CCCC3)c(=O)c2=O)C1 (stereo not drawn) [Example 47] 278 to 281 °C

For the compound shown here, CN1Cc2c(Cl)cc(Cl)cc2C(c2ccc(Nc3c(Nc4ccccc4)c(=O)c3=O)cc2)C1 (stereo not drawn) [Example 43] , give the reported melting point. 288 to 294 °C

Any idea what its melting point is? The compound is CCN(c1c(Nc2ccc([C@@H]3CN(C)Cc4c(Cl)cc(Cl)cc43)cc2)c(=O)c1=O)C(C)C [Example 32] 160 to 190 °C
